Tested on: M14 melanoma
assay_remarks: NCI tumour cell line growth inhibition, 48 h

compound	TGI
O=C(C1OC1c1ccc(Cl)cc1)C12CC3CC(CC(C3)C1)C2 (stereo not drawn)	38.1 µM
Nn1c(CCCCCCCCc2nnc(COc3ccc(Cl)cc3Cl)n2N)nnc1COc1ccc(Cl)cc1Cl	> 100 µM
COc1cc2c(c(OC)c1O)C(=O)C(OC)C(c1ccc(O)c(O)c1)O2 (stereo not drawn)	> 100 µM
Cc1ccc(Cc2n[nH]c(=O)[nH]2)cc1	> 100 µM
O=C(/C=C/c1ccccc1Cl)c1ccc(Cl)c(Cl)c1	33.4 µM
COc1ccc(-c2cc(=O)c3ccc(O)cc3o2)c(OC)c1OC	> 100 µM
O=C1N(C2CCCCC2)C(=O)N1C1CCCCC1	20.7 µM
C=C(CNCCO)[C@@H]1CC[C@]2(CO)CC[C@]3(C)[C@H](CC[C@@H]4[C@@]5(C)CCC(N)C(C)(C)[C@@H]5CC[C@]43C)[C@@H]12 (stereo partly drawn)	3.97 µM
CC1(C)OC(=O)C(=Cc2ccc(O)cc2)C(=O)O1	> 100 µM
S=C(N1CCN(c2ccc(Cl)c(Cl)c2)CC1)N1CCN(c2ccc(Cl)c(Cl)c2)CC1	32.3 µM
Clc1cccc(Cc2cn3cc(-c4ccccc4)nc3s2)c1Cl	> 100 µM
COc1cccc2c1C(=O)C1=C(C2=O)C(O)CC(C)(C)O1 (stereo not drawn)	> 100 µM
Cc1nc2c(nc1C)C(=O)c1ccccc1C2=O	2.26 µM
C/C(CCn1[nH]c(=O)ccc1=O)=N\O	> 100 µM
NC(CCCCCCCCCCP(=O)(O)O)C(=O)O (stereo not drawn)	> 100 µM
O=c1ccn([C@@H]2C[C@H]2CO)c(=O)[nH]1	> 100 µM
COc1ccc(-n2/c(=N/C(=S)N(C)C)ss/c2=N\C(=S)N(C)C)cc1	> 100 µM
CC1=C(C(=O)Nc2ccc(F)c(Cl)c2)C(c2ccc(Cl)cc2)NC(=O)N1 (stereo not drawn)	33.6 µM
Cc1ccc(-c2n[nH]c(Cc3nc(-c4ccc(C)cc4)n[nH]3)n2)cc1	> 100 µM
O=[S@@]1Nc2ccc(Br)cc2S1	> 100 µM
CCOC(=O)COc1cccc2c1C(=O)CCO2	> 100 µM
NC(N)=Nc1ccc(-c2ccc(N=C(N)N)cc2)cc1	> 100 µM
N#Cc1cccc2c1Sc1ccccc1N2	> 100 µM
